biological target: Secretin receptor (Homo sapiens); experiment: Agonist activity human SCTR stably expressed in CHO-K1 cells assessed as […] in cAMP accumulation incubated for 30 mins by TR-FRET assay; format: functional, cell-based; conditions: cho-k1
Sequence (P47872 whole entry): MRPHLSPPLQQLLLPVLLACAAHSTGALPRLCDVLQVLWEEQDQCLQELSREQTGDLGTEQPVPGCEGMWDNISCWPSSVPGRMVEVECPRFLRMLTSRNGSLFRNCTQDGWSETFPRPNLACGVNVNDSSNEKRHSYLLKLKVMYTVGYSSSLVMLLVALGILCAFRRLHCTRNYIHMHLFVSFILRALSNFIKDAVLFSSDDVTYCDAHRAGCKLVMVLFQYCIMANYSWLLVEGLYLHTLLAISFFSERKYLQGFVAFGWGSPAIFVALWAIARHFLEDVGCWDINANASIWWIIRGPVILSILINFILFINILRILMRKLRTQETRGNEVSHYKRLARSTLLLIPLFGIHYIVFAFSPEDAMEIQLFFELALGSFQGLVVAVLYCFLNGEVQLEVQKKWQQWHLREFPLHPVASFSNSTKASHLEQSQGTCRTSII
pEC50: −log10 of the molar value.

| biosequence | pEC50 |
| --- | --- |
| SECRETIN | 11.70 |

Entry source: ChEMBL document CHEMBL5523742
